// provenance: ChEMBL document CHEMBL1149797

Entries and their MIC values follow.
Test system: Staphylococcus epidermidis
assay.info: Antibacterial activity against Staphylococcus epidermidis ATCC 155 by broth microdilution technique
Type: functional
I'd appreciate it if you included the unit after the number.

These recorded examples may help you get a feel for the data.
smi | MIC
CC(=O)NC[C@H]1CN(c2ccc(N3CCN(C(=O)/C=C/c4c[nH]c5ccccc45)CC3)c(F)c2)C(=O)O1 | 1 µg/mL
CC(=O)NC[C@H]1CN(c2ccc(N3CCN(C(=O)/C=C/c4ccoc4)CC3)c(F)c2)C(=O)O1 | 0.5 µg/mL
CC(=O)NC[C@H]1CN(c2ccc(N3CCN(C(=O)/C=C/c4ccco4)CC3)c(F)c2)C(=O)O1 | 1 µg/mL
CC(=O)NC[C@H]1CN(c2ccc(N3CCN(C(=O)/C=C/c4ccc(COC(C)=O)o4)CC3)c(F)c2)C(=O)O1 | 2 µg/mL

Below: the item to evaluate.
Task item: Would you mind telling me what MIC value was observed for CC(=O)NC[C@H]1CN(c2ccc(N3CCN(C/C=C/c4ccc([N+](=O)[O-])o4)CC3)c(F)c2)C(=O)O1 ?
Reply: 0.5 µg/mL

* * *

Test system: Streptococcus pyogenes
assay.info: Antibacterial activity against Streptococcus pyogenes ATCC 14289 by broth microdilution technique
Format: functional
property.label: MIC

compound | MIC
CC(=O)NC[C@H]1CN(c2ccc(N3CCN(C(=O)/C=C/c4ccc(C(=O)O)o4)CC3)c(F)c2)C(=O)O1 | > 16 µg/mL
CC(=O)NC[C@H]1CN(c2ccc(N3CCN(C(=O)CO)CC3)c(F)c2)C(=O)O1 [EPEREZOLID] | 0.5 µg/mL
CC(=O)NC[C@H]1CN(c2ccc(N3CCN(C(=O)/C=C/c4ccc(COC(C)=O)o4)CC3)c(F)c2)C(=O)O1 | 2 µg/mL
CC(=O)NC[C@H]1CN(c2ccc(N3CCN(C(=O)/C=C/c4ccc(CO)o4)CC3)c(F)c2)C(=O)O1 | 1 µg/mL
CC(=O)NC[C@H]1CN(c2ccc(N3CCN(C(=O)/C=C/c4ccncc4)CC3)c(F)c2)C(=O)O1 | 0.5 µg/mL
CC(=O)NC[C@H]1CN(c2ccc(N3CCN(C(=O)/C=C/c4ccc(C=O)o4)CC3)c(F)c2)C(=O)O1 | 1 µg/mL
CC(=O)NC[C@H]1CN(c2ccc(N3CCN(C(=O)/C=C/c4cccs4)CC3)c(F)c2)C(=O)O1 | 1 µg/mL
CC(=O)NC[C@H]1CN(c2ccc(N3CCN(C/C=C/c4ccc([N+](=O)[O-])o4)CC3)c(F)c2)C(=O)O1 | 0.12 µg/mL

Task item: Would you mind telling me what MIC value was observed for CC(=O)NC[C@H]1CN(c2ccc(N3CCN(C(=O)/C=C/c4ccc[nH]4)CC3)c(F)c2)C(=O)O1 ?
Reply: 1 µg/mL

Task item: Would you mind telling me what MIC value was observed for CC(=O)NC[C@H]1CN(c2ccc(N3CCOCC3)c(F)c2)C(=O)O1 [LINEZOLID] ?
Reply: 1 µg/mL

Task item: Would you mind telling me what MIC value was observed for CC(=O)NC[C@H]1CN(c2ccc([N+]3([O-])CCN(C(=O)/C=C/c4ccc([N+](=O)[O-])o4)CC3)c(F)c2)C(=O)O1 ?
Reply: 0.12 µg/mL

Task item: Would you mind telling me what MIC value was observed for CC(=O)NC[C@H]1CN(c2ccc(N3CCN(C(=O)/C=C/c4ccc([N+](=O)[O-])o4)CC3)c(F)c2)C(=O)O1 ?
Reply: ≤ 0.12 µg/mL

Task item: Would you mind telling me what MIC value was observed for CC(=O)NC[C@H]1CN(c2ccc(N3CCN(C(=O)/C=C/c4cccnc4)CC3)c(F)c2)C(=O)O1 ?
Reply: 0.5 µg/mL

Task item: Would you mind telling me what MIC value was observed for CC(=O)NC[C@H]1CN(c2ccc(N3CCN(C(=O)/C=C/c4c[nH]c5ccccc45)CC3)c(F)c2)C(=O)O1 ?
Reply: 0.12 µg/mL

Task item: Would you mind telling me what MIC value was observed for CC(=O)NC[C@H]1CN(c2ccc(N3CCN(C(=O)/C=C/c4ccc(C)o4)CC3)c(F)c2)C(=O)O1 ?
Reply: 0.5 µg/mL

Task item: Would you mind telling me what MIC value was observed for CC(=O)NC[C@H]1CN(c2ccc(N3CCN(C/C=C/c4ccco4)CC3)c(F)c2)C(=O)O1 ?
Reply: 0.5 µg/mL

Task item: Would you mind telling me what MIC value was observed for CC(=O)NC[C@H]1CN(c2ccc(N3CCN(C(=O)/C=C/c4ccoc4)CC3)c(F)c2)C(=O)O1 ?
Reply: 0.5 µg/mL

Task item: Would you mind telling me what MIC value was observed for CC(=O)NC[C@H]1CN(c2ccc(N3CCN(C(=O)/C=C/c4ccc([N+](=O)[O-])s4)CC3)c(F)c2)C(=O)O1 ?
Reply: 0.12 µg/mL

Task item: Would you mind telling me what MIC value was observed for CC(=O)NC[C@H]1CN(c2ccc(N3CCN(C(=O)/C=C/c4ccc(C(=O)[O-])o4)CC3)c(F)c2)C(=O)O1.[Na+] ?
Reply: > 16 µg/mL

* * *

assay.info: Cmax in Sprague-Dawley rat at 10 mg/kg, iv
Format: ADME, organism-based
Set-up: dose 10 mg/kg, route intravenous
condition.label: in vivo
property.label: Cmax (ng/mL)
Hi! Could you send only the number? It should be in ng/mL, unit omitted.

Task item: Would you mind telling me what Cmax value was observed for CC(=O)NC[C@H]1CN(c2ccc([N+]3([O-])CCN(C(=O)/C=C/c4ccc([N+](=O)[O-])o4)CC3)c(F)c2)C(=O)O1 ?
Reply: 9180

* * *

assay.info: Tmax in Sprague-Dawley rat at 30 mg/kg, po
Format: ADME, organism-based
Set-up: dose 30 mg/kg, route oral
condition.label: in vivo
property.label: Tmax (min)
Hi! Could you send only the number? It should be in min, unit omitted.

Task item: Would you mind telling me what Tmax value was observed for CC(=O)NC[C@H]1CN(c2ccc([N+]3([O-])CCN(C(=O)/C=C/c4ccc([N+](=O)[O-])o4)CC3)c(F)c2)C(=O)O1 ?
Reply: 10.2

* * *

assay.info: Bioavailability in Sprague-Dawley rat at 30 mg/kg, po
condition.label: in vivo
property.label: bioavailability (%)
Hi! Could you send only the number? It should be in %, unit omitted.

Task item: Would you mind telling me what bioavailability value was observed for CC(=O)NC[C@H]1CN(c2ccc([N+]3([O-])CCN(C(=O)/C=C/c4ccc([N+](=O)[O-])o4)CC3)c(F)c2)C(=O)O1 ?
Reply: 60

* * *

Test system: Staphylococcus epidermidis
assay.info: Antibacterial activity against Staphylococcus epidermidis ATCC 155 by broth microdilution technique
Type: functional
property.label: MIC

These recorded examples may help you get a feel for the data.
smi | test.system | result
CC(=O)NC[C@H]1CN(c2ccc(N3CCN(C/C=C/c4ccco4)CC3)c(F)c2)C(=O)O1 | Staphylococcus epidermidis | 8 µg/mL
CC(=O)NC[C@H]1CN(c2ccc(N3CCN(C(=O)CO)CC3)c(F)c2)C(=O)O1 | Staphylococcus epidermidis | 2 µg/mL
CC(=O)NC[C@H]1CN(c2ccc(N3CCN(C(=O)/C=C/c4ccc[nH]4)CC3)c(F)c2)C(=O)O1 | Staphylococcus epidermidis | 0.5 µg/mL
CC(=O)NC[C@H]1CN(c2ccc(N3CCN(C(=O)/C=C/c4ccc(C(=O)[O-])o4)CC3)c(F)c2)C(=O)O1.[Na+] | Staphylococcus epidermidis | > 16 µg/mL
CC(=O)NC[C@H]1CN(c2ccc(N3CCOCC3)c(F)c2)C(=O)O1 | Staphylococcus epidermidis | 1 µg/mL
CC(=O)NC[C@H]1CN(c2ccc([N+]3([O-])CCN(C(=O)/C=C/c4ccc([N+](=O)[O-])o4)CC3)c(F)c2)C(=O)O1 | Staphylococcus epidermidis | 0.12 µg/mL

Task item: Entry CC(=O)NC[C@H]1CN(c2ccc(N3CCN(C(=O)/C=C/c4ccc(C=O)o4)CC3)c(F)c2)C(=O)O1 , system Staphylococcus epidermidis: what MIC was measured?
Reply: 2 µg/mL

Task item: Entry CC(=O)NC[C@H]1CN(c2ccc(N3CCN(C(=O)/C=C/c4ccsc4)CC3)c(F)c2)C(=O)O1 , system Staphylococcus epidermidis: what MIC was measured?
Reply: 1 µg/mL

Task item: Entry CC(=O)NC[C@H]1CN(c2ccc(N3CCN(C(=O)/C=C/c4ccc(CO)o4)CC3)c(F)c2)C(=O)O1 , system Staphylococcus epidermidis: what MIC was measured?
Reply: 1 µg/mL

Task item: Entry CC(=O)NC[C@H]1CN(c2ccc(N3CCN(C(=O)/C=C/c4ccc(C(=O)O)o4)CC3)c(F)c2)C(=O)O1 , system Staphylococcus epidermidis: what MIC was measured?
Reply: > 16 µg/mL

* * *

Entries and their MIC values follow.
System: Staphylococcus aureus
assay.info: Antibacterial activity against Staphylococcus aureus ATCC 14154 by broth microdilution technique
Assay type: functional
I'd appreciate it if you included the unit after the number.

smi | result
CC(=O)NC[C@H]1CN(c2ccc(N3CCN(C(=O)/C=C/c4ccc([N+](=O)[O-])s4)CC3)c(F)c2)C(=O)O1 | 0.25 µg/mL
CC(=O)NC[C@H]1CN(c2ccc(N3CCN(C(=O)CO)CC3)c(F)c2)C(=O)O1 | 1 µg/mL
CC(=O)NC[C@H]1CN(c2ccc([N+]3([O-])CCN(C(=O)/C=C/c4ccc([N+](=O)[O-])o4)CC3)c(F)c2)C(=O)O1 | 1 µg/mL
CC(=O)NC[C@H]1CN(c2ccc(N3CCOCC3)c(F)c2)C(=O)O1 | 1 µg/mL

Below: the item to evaluate.
Task item: Would you mind telling me what MIC value was observed for CC(=O)NC[C@H]1CN(c2ccc(N3CCN(C(=O)/C=C/c4ccc([N+](=O)[O-])o4)CC3)c(F)c2)C(=O)O1 ?
Reply: 0.12 µg/mL
